# credit: ChEMBL document CHEMBL4376833

Test system: Staphylococcus aureus
Experiment: Antibacterial activity against methicillin-resistant Staphylococcus aureus assessed as bacterial growth inhibition in TSB medium supplemented with 1% glucose measured after overnight incubation by CLSI protocol based broth dilution method
Assay type: functional, organism-based
Activity calls are given as the source filed them. The calls are words filed in the database; no cut-off is given here. Non-standard residues stand in square brackets, D forms with d. Residues, ends and D or L forms follow the SMILES beside them. Orn = NCCC[C@H](N)C(=O)O; Dap = NC[C@H](N)C(=O)O
property-name: inhibition

CC[C@H](C)[C@H](NC(=O)[C@H](CN)NC(=O)[C@@H](NC(=O)[C@H](CN)NC(=O)[C@@H](NC(=O)[C@@H](NC(=O)[C@H](CC(C)C)NC(=O)[C@H](CN)NC(=O)[C@@H](N)C(C)C)[C@@H](C)CC)C(C)C)C(C)C)C(=O)N[C@@H](Cc1c[nH]c2ccccc12)C(=O)N[C@@H](CN)C(=O)N[C@@H](CN)C(N)=O (H-V[Dap]LIV[Dap]V[Dap]IW[Dap][Dap]-NH2): inactive
CC[C@H](C)[C@H](NC(=O)[C@H](CCCN)NC(=O)[C@@H](NC(=O)[C@H](C)NC(=O)[C@@H](NC(=O)[C@@H](NC(=O)[C@H](CC(C)C)NC(=O)[C@H](CCCN)NC(=O)[C@@H](N)C(C)C)[C@@H](C)CC)C(C)C)C(C)C)C(=O)N[C@@H](Cc1c[nH]c2ccccc12)C(=O)N[C@@H](CCCN)C(=O)N[C@@H](CCCN)C(N)=O (H-V[Orn]LIVAV[Orn]IW[Orn][Orn]-NH2): inactive
CC[C@H](C)[C@H](NC(=O)[C@H](CCCN)NC(=O)[C@@H](NC(=O)[C@H](CCCN)NC(=O)[C@@H](NC(=O)[C@@H](NC(=O)[C@H](CC(C)C)NC(=O)[C@H](CCCN)NC(=O)[C@@H](N)C(C)C)[C@@H](C)CC)C(C)C)C(C)C)C(=O)N[C@@H](Cc1c[nH]c2ccccc12)C(=O)N[C@@H](CCCN)C(=O)N[C@@H](CCCN)C(N)=O (H-V[Orn]LIV[Orn]V[Orn]IW[Orn][Orn]-NH2): inactive
CC[C@H](C)[C@H](NC(=O)[C@H](CN)NC(=O)[C@@H](NC(=O)[C@H](C)NC(=O)[C@@H](NC(=O)[C@@H](NC(=O)[C@H](CC(C)C)NC(=O)[C@H](CN)NC(=O)[C@@H](N)C(C)C)[C@@H](C)CC)C(C)C)C(C)C)C(=O)N[C@@H](Cc1c[nH]c2ccccc12)C(=O)N[C@@H](CN)C(=O)N[C@@H](CN)C(N)=O (H-V[Dap]LIVAV[Dap]IW[Dap][Dap]-NH2): inactive

----------
System: PBMC
Experiment: Proinflammatory activity in human PBMC assessed as increase in LPS-stimulated IL1 production at 40 uM incubated for overnight in presence of Pseudomonas aeruginosa PAO1 LPS by ELISA relative to control
Format: cell-based
property-name: fold change (FC)

Value of measured fold change (FC) for the entry H-VKLIVKVKIWKK-NH2 : 4 to 8

----------
Reported values of MIC for individual entries
Test system: Staphylococcus aureus
Assay: Antibacterial activity against methicillin-resistant Staphylococcus aureus assessed as bacterial growth inhibition in MHB medium measured after overnight incubation by CLSI protocol based broth dilution method
Assay type: functional
Non-standard residues stand in square brackets, D forms with d. Residues, ends and D or L forms follow the SMILES beside them. Orn = NCCC[C@H](N)C(=O)O; Dap = NC[C@H](N)C(=O)O
Reply with just the number (in µM).

CC[C@H](C)[C@H](NC(=O)[C@H](CN)NC(=O)[C@@H](NC(=O)[C@H](C)NC(=O)[C@@H](NC(=O)[C@@H](NC(=O)[C@H](CC(C)C)NC(=O)[C@H](CN)NC(=O)[C@@H](N)C(C)C)[C@@H](C)CC)C(C)C)C(C)C)C(=O)N[C@@H](Cc1c[nH]c2ccccc12)C(=O)N[C@@H](CN)C(=O)N[C@@H](CN)C(N)=O (H-V[Dap]LIVAV[Dap]IW[Dap][Dap]-NH2): 4
CC[C@H](C)[C@H](NC(=O)[C@H](CCCN)NC(=O)[C@@H](NC(=O)[C@H](CCCN)NC(=O)[C@@H](NC(=O)[C@@H](NC(=O)[C@H](CC(C)C)NC(=O)[C@H](CCCN)NC(=O)[C@@H](N)C(C)C)[C@@H](C)CC)C(C)C)C(C)C)C(=O)N[C@@H](Cc1c[nH]c2ccccc12)C(=O)N[C@@H](CCCN)C(=O)N[C@@H](CCCN)C(N)=O (H-V[Orn]LIV[Orn]V[Orn]IW[Orn][Orn]-NH2): 32
CC[C@H](C)[C@H](NC(=O)[C@H](CCCN)NC(=O)[C@@H](NC(=O)[C@H](C)NC(=O)[C@@H](NC(=O)[C@@H](NC(=O)[C@H](CC(C)C)NC(=O)[C@H](CCCN)NC(=O)[C@@H](N)C(C)C)[C@@H](C)CC)C(C)C)C(C)C)C(=O)N[C@@H](Cc1c[nH]c2ccccc12)C(=O)N[C@@H](CCCN)C(=O)N[C@@H](CCCN)C(N)=O (H-V[Orn]LIVAV[Orn]IW[Orn][Orn]-NH2): 8

Here is another compound to look at.
Value sought: MIC, system Staphylococcus aureus, item CC[C@H](C)[C@H](NC(=O)[C@H](CN)NC(=O)[C@@H](NC(=O)[C@H](CN)NC(=O)[C@@H](NC(=O)[C@@H](NC(=O)[C@H](CC(C)C)NC(=O)[C@H](CN)NC(=O)[C@@H](N)C(C)C)[C@@H](C)CC)C(C)C)C(C)C)C(=O)N[C@@H](Cc1c[nH]c2ccccc12)C(=O)N[C@@H](CN)C(=O)N[C@@H](CN)C(N)=O (H-V[Dap]LIV[Dap]V[Dap]IW[Dap][Dap]-NH2) . Result: 8
